- Tested on: PC-3 prostate
- assay-details: NCI-60 one-dose screen, 48 h (100 = growth as untreated, 0 = no growth, -100 = all killed)
- test-parameters: 10 µM unless noted
Compounds without any hit were thinned out: in the full panel of roughly 83,000, 20% have a hit.
So basically, if growth comes in under 50% it's Y, and if it's 50% or more it's N.

Past entries and their recorded results:
[ask] Could you please tell me whether growth recorded for CCc1ccc(Oc2c(-c3ccc(OCc4ccc(Cl)cc4)cc3O)nn(C)c2C(F)(F)F)cc1 is less than 50%?
[reply] Y

[ask] Below 50% on growth? Entry C=C1CC[C@H](C(C)C)[C@@H]2[C@H]1[C@H]1CC(=C)[C@@H](O)CC[C@@](C)(O)[C@@H]2O1
[reply] N

[ask] Strictly below 50%: is that where growth of CCN(CC)S(=O)(=O)c1ccc(NC(=O)CSc2nnc(C)n2-c2ccccc2)cc1 sits?
[reply] N

[ask] Strictly below 50%: is that where growth of Cc1cccc2c1S/C(=C/c1ccc([N+](=O)[O-])cc1)C2=O sits?
[reply] N

[ask] Here's an entry: O=C(/C=C/c1ccc([N+](=O)[O-])o1)NNC(=O)c1cc2ccccc2cc1O . Is its growth below 50%?
[reply] Y

[ask] Here's an entry: N#C/C(=C\c1ccc(F)cc1)n1nc2cccc(F)c2n1 . Is its growth below 50%?
[reply] N

Then there is this compound:
[ask] Could you please tell me whether growth recorded for COc1nc2ccccc2cc1-c1nc2c(cnn2-c2ccc(Br)cc2)c(=O)[nH]1 is less than 50%?
[reply] Y

* * *

- Tested on: NCI-H322M lung
- assay-details: NCI-60 one-dose screen, 48 h (100 = growth as untreated, 0 = no growth, -100 = all killed)
- test-parameters: 10 µM unless noted
- Description: Growth inhibition of the NCI-H322M human Non-Small Cell Lung tumor cell line is measured as a screen for anti-cancer activity. Cells are grown in 96 well plates and exposed to the test compound for 48 hours. Compounds are tested at a single concentration, which is 10^-5 M for most compounds. The reported endpoint is percent growth (GI% or GIPRCNT), where numbers from 0 - 100% represent growth inhibition, and numbers from -100% - 0 represent cell death. […]
About 83,000 compounds went through this panel and 20% of them were active in at least one assay; those are over-represented in the sample as a whole.
parameter-measured: growth (%)
Numbers only, in %.

Completed entries (count: 6):
[ask] Given CC1=NN(c2ccc(S(=O)(=O)O)cc2)C(=O)C1N=Nc1ccc(-c2ccc(N=Nc3ccc(OS(=O)(=O)c4ccc(C)cc4)cc3)c(S(=O)(=O)O)c2)cc1 (stereo not drawn) , report its growth on NCI-H322M lung.
[reply] 93.4

[ask] Determine reported growth for CCOc1cccc(NC2=C(Br)C(=O)C(C)=C(C)C2=O)c1 ; test system: NCI-H322M lung.
[reply] 96.2

[ask] Return reported growth for target or system NCI-H322M lung, item O=C1c2cccc3cccc(c23)C(=O)N1N1C(=O)c2cccc3c(NC4CCCCC4)ccc(c23)C1=O .
[reply] 96.4

[ask] Would you please give the reported growth of C=C1C(=O)O[C@H]2[C@H]1CC/C(COC(=O)C(C)c1ccc(CC(C)C)cc1)=C\CC[C@@]1(C)O[C@@H]21 (stereo partly drawn) with NCI-H322M lung?
[reply] 97.9

[ask] Identify measured growth obtained with NCI-H322M lung for C[C@H](C(=O)Nc1ccc(S(N)(=O)=O)cc1)S(=O)(=O)c1ccccc1 .
[reply] 108

[ask] Fill in: growth on NCI-H322M lung, entry CNC(=O)c1cc(-n2ccc3cc(NC(=O)c4ccc(N5CCOCC5)c(C(F)(F)F)c4)ccc32)ccn1
[reply] 91.5

Go through the items and report each one's growth.
1. CN1C(=C2C(=O)OC(C)(C)OC2=O)CCC1C(=O)NCc1ccc(Cl)cc1Cl (stereo not drawn)
2. COc1ccc2c(c1)c(-c1ccc(-c3cn(C)c4ccc(OC)cc34)o1)cn2C

[reply]
[107, 95.1]
